system: Aspergillus fumigatus; assay: Antifungal activity against Aspergillus fumigatus at 100 ug/disc after 24 hrs by disc diffusion method; format: functional; conditions: read-out: DIZ
PARAMETER MEASURED: zone of inhibition at 100 µg/disc (mm)
Reply with just the number (in mm).

Sample answers from the record:
>  <COMPOUND>
CCN1CCN(CC2SC(c3ccccc3[N+](=O)[O-])N(c3ccc(Nc4nc(Oc5cc(=O)n(C)c6ccccc56)nc(N(C)C)n4)cc3)C2=O)CC1 (stereo not given)

>  <TARGET OR SYSTEM>
Aspergillus fumigatus

>  <PARAMETER MEASURED>
zone of inhibition at 100 µg/disc

>  <OBSERVED VALUE>
13

$$$$
>  <COMPOUND>
CCN1CCN(CC2SC(c3ccc(Br)cc3)N(c3ccc(Nc4nc(Oc5cc(=O)n(C)c6ccccc56)nc(N(C)C)n4)cc3)C2=O)CC1 (stereo not given)

>  <TARGET OR SYSTEM>
Aspergillus fumigatus

>  <PARAMETER MEASURED>
zone of inhibition at 100 µg/disc

>  <OBSERVED VALUE>
14

$$$$
>  <COMPOUND>
CCN1CCN(CC2SC(c3ccc(C)cc3)N(c3ccc(Nc4nc(Oc5cc(=O)n(C)c6ccccc56)nc(N(C)C)n4)cc3)C2=O)CC1 (stereo not given)

>  <TARGET OR SYSTEM>
Aspergillus fumigatus

>  <PARAMETER MEASURED>
zone of inhibition at 100 µg/disc

>  <OBSERVED VALUE>
24

$$$$

Then there is this compound:
Look up zone of inhibition at 100 µg/disc: CCN1CCN(CC2SC(c3ccc(C(=O)O)cc3)N(c3ccc(Nc4nc(Oc5cc(=O)n(C)c6ccccc56)nc(N(C)C)n4)cc3)C2=O)CC1 (stereo not given)
20
